Target: T1, corticotropin-releasing hormone (CRH) peptide (human and mouse (same sequence), not fully specified)
T1 peptide: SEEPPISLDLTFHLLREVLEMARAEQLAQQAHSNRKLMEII
Experiment: cell-based or functional assay
measured_quantity: mCrhr1 Luciferase Reporter Assay IC50

INSERT INTO assay_data (binder, measured_quantity, result) VALUES
  ('PR006746 (antibody, human IgG1, kappa, V domains shown) VH: EVQLVESGGGLVQPGGSLRLSCAASGFTFSDNWMSWVRQAPGKGLEWVANIKQDSSENYYVDSVKGRFTISRDNAKNSLYLQMNSLRAEDTAVYYCSRGLALWGWGQGTLVTVSS VL: DIVMTHSPLSLPVTPGDPASISCRSSQSLLHSTGYNYLDWYLQKPGQSPQLLIYLGSNRASGVPDRFSGSGSGTDFTLKFIRVEAEDVGVYYCMQALQTPYTFGQGTKLEIKR', 'mCrhr1 Luciferase Reporter Assay IC50', '46.4 nM');
